- target-desc: T1, mouse CD47-IgV-Domain protein (mouse), Q61735
- T1 chain: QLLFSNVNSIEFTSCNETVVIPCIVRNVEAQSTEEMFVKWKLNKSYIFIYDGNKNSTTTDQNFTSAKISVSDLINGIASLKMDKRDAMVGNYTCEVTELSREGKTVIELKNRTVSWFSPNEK
- assay: MST; human or mouse CD47-IgV-Domain protein labeled with NT-647, about 50 to 200 nM; unlabeled peptides or ligand protein diluted serially; 50 mM Tris, 150 mM NaCl, 10 mM MgCl2, 0.05% Tween-20, 0.5% DMSO, pH 7.5; 30 min at room temperature; 25°C
value-kind: pKd
Quick note: pKd values are minus log10 of concentrations in mol/L.

State the recorded pKd for this entry: AWSATWSNYWRH (modifications not checked) [pep-20]
5.44
